Reference source: patent US20230139171A1

Molecular target: human TLR7 (Homo sapiens, UniProt Q9NYK1)
Construct: host or cells: HEK-Blue cells
Sequence (Q9NYK1 27-1049): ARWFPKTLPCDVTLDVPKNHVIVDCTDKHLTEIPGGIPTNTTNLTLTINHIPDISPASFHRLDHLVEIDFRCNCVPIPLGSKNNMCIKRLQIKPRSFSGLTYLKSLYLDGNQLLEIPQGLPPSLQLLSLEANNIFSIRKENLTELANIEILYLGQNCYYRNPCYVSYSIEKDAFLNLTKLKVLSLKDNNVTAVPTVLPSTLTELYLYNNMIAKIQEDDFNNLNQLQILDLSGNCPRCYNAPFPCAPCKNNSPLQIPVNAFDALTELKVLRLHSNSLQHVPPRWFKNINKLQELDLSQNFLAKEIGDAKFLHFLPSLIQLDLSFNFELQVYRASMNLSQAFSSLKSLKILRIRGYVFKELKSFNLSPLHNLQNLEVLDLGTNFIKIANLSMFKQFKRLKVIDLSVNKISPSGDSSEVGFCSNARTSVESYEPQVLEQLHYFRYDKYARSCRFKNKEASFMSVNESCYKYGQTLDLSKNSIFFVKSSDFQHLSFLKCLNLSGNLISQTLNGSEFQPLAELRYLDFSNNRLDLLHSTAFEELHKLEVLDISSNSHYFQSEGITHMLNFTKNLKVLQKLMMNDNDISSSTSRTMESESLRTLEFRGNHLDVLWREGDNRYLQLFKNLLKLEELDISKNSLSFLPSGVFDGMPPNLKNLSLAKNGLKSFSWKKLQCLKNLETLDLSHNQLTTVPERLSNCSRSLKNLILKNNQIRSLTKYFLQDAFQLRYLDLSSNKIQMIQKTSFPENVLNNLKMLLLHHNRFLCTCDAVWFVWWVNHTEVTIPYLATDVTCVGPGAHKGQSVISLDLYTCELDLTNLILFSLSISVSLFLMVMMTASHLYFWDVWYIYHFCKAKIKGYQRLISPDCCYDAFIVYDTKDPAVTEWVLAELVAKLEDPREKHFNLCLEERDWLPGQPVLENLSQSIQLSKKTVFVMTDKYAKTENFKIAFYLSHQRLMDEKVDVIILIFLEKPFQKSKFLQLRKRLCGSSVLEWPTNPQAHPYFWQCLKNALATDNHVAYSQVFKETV
Assay: TLR7 inhibition reporter assay (HEK-Blue cells, SEAP reporter, gardiquimod stimulation)
Type: cell-based
Conditions: HEK-Blue cells overexpressing human TLR7, SEAP reporter, gardiquimod 7.5 μM; read-out: TLR7 IC50
Text: TLR7/8/9 Inhibition Reporter Assays HEK-Blue™-cells (Invivogen) overexpressing human TLR7, TLR8 or TLR9 receptors were used for screening inhibitors of these receptors using an inducible SEAP (secreted embryonic alkaline phosphatase) reporter gene under the control of the IFN-β minimal promoter fused to five NF-κB and AP-1-binding sites. […]
compounds and their reported IC50
In your response, the unit should come after the numeric value.

// known answers, use as guide
compound="CC(C)c1c(-c2cn(C)c3ncccc23)[nH]c2sc(C3CCC(N4CC5(COC5)C4)CC3)nc12 (single isomer, unassigned) [Example 180]" systemundertest="human TLR7 (Homo sapiens, UniProt Q9NYK1)" readouttype=IC50 readoutvalue="3.54 nM"
compound="COc1cc(-c2[nH]c3sc(C4CCC(N5CCNC(=O)C5)CC4)nc3c2C)cn2ncnc12 (single isomer, unassigned) [Example 275]" systemundertest="human TLR7 (Homo sapiens, UniProt Q9NYK1)" readouttype=IC50 readoutvalue="413 nM"

I'm curious: which IC50 was measured for COc1cc(-c2[nH]c3sc(C4CCN(C(C)C)CC4)nc3c2C(C)C)cn2ncnc12 [Example 10] tested on human TLR7 (Homo sapiens, UniProt Q9NYK1)? 1.37 nM

I'm curious: which IC50 was measured for COc1cc(-c2[nH]c3sc(C4CCC(N5CCNC(=O)C5)CC4)nc3c2C)cn2ncnc12 (single isomer, unassigned) [Example 276] tested on human TLR7 (Homo sapiens, UniProt Q9NYK1)? 975 nM

I'm curious: which IC50 was measured for Cc1c(-c2[nH]c3sc(N4CCN(CCS(C)(=O)=O)CC4)nc3c2C(C)C)cn2ncnc2c1C [Example 282] tested on human TLR7 (Homo sapiens, UniProt Q9NYK1)? 29.8 nM

I'm curious: which IC50 was measured for CC(C)c1c(-c2cn(C)c3ncccc23)[nH]c2sc(C3CCN(C4CCOCC4)CC3)nc12 [Example 35] tested on human TLR7 (Homo sapiens, UniProt Q9NYK1)? 2.77 nM

I'm curious: which IC50 was measured for Cc1c(-c2[nH]c3sc(C4CCC(N5CCNC(=O)C5)CC4)nc3c2C(C)C)cn(C)c(=O)c1C (single isomer, unassigned) [Example 259] tested on human TLR7 (Homo sapiens, UniProt Q9NYK1)? 23.5 nM
